Test system: Plasmodium berghei
Test description: Screen against P. berghei liver stage (PbLuc), transformed with Luciferase, at 10uM
Type: functional, HepG2
Condition info: tested at 10 uM
Hit rate of the full screen: of about 69,000 compounds, about 8,600 (12%) showed an effect of 50% or more. What follows is part of a selection rich in strong results, with near analogues and random picks from the rest.
Parameter threshold = 10%. Response is MET when INHIBITION meets or exceeds it, else NOT MET.

Check if INHIBITION >= 10% (inclusive). Item: Cc1nc(C)n(C2CCCN(C(=O)c3cccc4cn[nH]c34)C2)n1 (stereo not drawn)
MET

Please answer likewise for CCN(C(=O)NCc1ccc(C)cc1OC)C(C)c1cccnc1 (stereo not drawn)
MET

Please answer likewise for "O=C(CCc1ccc(Cl)cc1)N[C@@H]1CC[C@@H](O)[C@@H]1O"
MET

Please answer likewise for COc1ccc(C)cc1C(=O)N1CCCC(n2nc(C)nc2C)C1 (stereo not drawn)
NOT MET

Please answer likewise for "O=C(c1ccncc1)N1CC[C@H]2[C@H]1CCN2S(=O)(=O)C1CC1"
NOT MET

Please answer likewise for Cc1nc(C)n(C2CCCN(C(=O)c3cccc4[nH]ncc34)C2)n1 (stereo not drawn)
NOT MET

Please answer likewise for "Cc1nnc(SCc2cc(=O)n3c4c(sc3n2)CCCC4)[nH]1"
MET

Please answer likewise for "Cn1cc(N2C(=O)C[C@@H]3[C@@H]2CCN3C(=O)c2ccco2)cn1"
MET

Please answer likewise for "COc1cn(CC(=O)N2CCN(c3ccc(F)cc3)CC2)c(C)cc1=O"
MET

Please answer likewise for CCOc1ccccc1CNC(=O)N(CC)C(C)c1cccnc1 (stereo not drawn)
NOT MET

Please answer likewise for "O=C(c1ccco1)N1CC[C@H]2[C@H]1CCN2S(=O)(=O)C1CC1"
MET

Please answer likewise for O=C(Nc1cccc(C(=O)OCC2CCCN2)c1)c1ccoc1 (stereo not drawn)
NOT MET

Please answer likewise for COc1ccc(C(=O)N2CCCC(n3nc(C)nc3C)C2)c(OC)c1 (stereo not drawn)
MET

Please answer likewise for "COC(=O)NCCCn1ccnc1-c1ccccc1"
NOT MET

Please answer likewise for CCOc1ccc(C2SCC(=O)Nc3c2c(=O)[nH]n3C(C)C)cc1 (stereo not drawn)
MET

Please answer likewise for CCN(C(=O)NCc1ccccc1OC(F)F)C(C)c1cccnc1 (stereo not drawn)
MET

Please answer likewise for "CNC(=O)CN(C)C(=O)c1cc2ccccc2cc1OC"
MET

Please answer likewise for "O=C(c1ccccn1)N1CC[C@H]2[C@H]1CCN2S(=O)(=O)C1CC1"
NOT MET

Please answer likewise for CN1CC2(CNCCN(C(=O)Nc3ccccc3)C2)CC1=O (stereo not drawn)
NOT MET

Please answer likewise for COc1cc(Cl)ccc1C(=O)N1CCCC(n2nc(C)nc2C)C1 (stereo not drawn)
MET

Please answer likewise for "CS(=O)(=O)N1C[C@@H]2CCN(C(=O)c3ccco3)[C@@H]2C1"
MET

Please answer likewise for COc1ccccc1CC(C)CC(=O)NS(=O)(=O)C(C)C (stereo not drawn)
NOT MET

Please answer likewise for "CC(=O)N1CCC2(CC1)C(=O)N(c1ccc(C)nc1)CCN2CC(C)C"
MET

###

System: Plasmodium berghei
Test description: Screen against P. berghei liver stage (PbLuc), transformed with Luciferase, at 10uM
Format: functional, HepG2
Condition info: tested at 10 uM
In all, about 69,000 compounds went through this assay and about 8,600 (12%) showed an effect of 50% or more. The full list was thinned out, with strong results kept by preference.
Parameter threshold = 40%. Response is MET when INHIBITION meets or exceeds it, else NOT MET.

Check if INHIBITION >= 40% (inclusive). Item: O=C(c1cnn[nH]1)N1CCCC1c1nc2cc(F)ccc2[nH]1 (stereo unspecified)
NOT MET

Please answer likewise for "C=C1C(C)(C)[C@@H]2CC[C@]1(C(=O)N1CCC(n3cc(CCO)nn3)CC1)C2"
NOT MET

Please answer likewise for O=C(Nc1ccncc1)NC1CCN(c2ccccc2Cl)C1=O (stereo unspecified)
MET

Please answer likewise for CN1CCC(NC(=O)Nc2cnn(-c3ccccc3Cl)c2)C1=O (stereo unspecified)
NOT MET

Please answer likewise for "Cc1cccc(NC(=O)N2CCCn3cnc(CN(C)C(C)C)c3C2)c1"
NOT MET

Please answer likewise for "C=C1C(C)(C)[C@@H]2CC[C@]1(C(=O)N1CCC(Cn3cc(CO)nn3)CC1)C2"
MET

###

System: Plasmodium berghei
Test description: Screen against P. berghei liver stage (PbLuc), transformed with Luciferase, at 10uM
Format: functional, HepG2
Condition info: tested at 10 uM
Among all 69,000 compounds or so, about 8,600 (12%) showed an effect of 50% or more. What follows is part of a selection rich in strong results, with near analogues and random picks from the rest.
Entry class follows INHIBITION: lower range (below 20%), middle range (20% to below 40%), upper range (40% or more)

Sort "CCOC(=O)CCn1cnc2onc(-c3cc(OC)ccc3Cl)c2c1=O" into one of the categories.
lower range

Please answer likewise for "CN(Cc1cnccn1)S(=O)(=O)c1ccc(C(F)(F)F)nc1"
upper range

Please answer likewise for Cc1nc(CN2CCCC2c2noc(C3CC3)n2)oc1C (stereo not drawn)
upper range

Please answer likewise for "CSc1ccccc1NC(=O)C1CN(C(=O)c2ccc3c(c2)OCO3)C1"
lower range

Please answer likewise for O=C(CN1CCCC1Cn1cncn1)Nc1nncs1 (stereo not drawn)
lower range

Please answer likewise for "Cc1cccc2[nH]c(COCC(=O)N3CCCn4cncc4C3)nc12"
middle range

Please answer likewise for COc1c(C)cnc(CN2CCCC2c2noc(C3CC3)n2)c1C (stereo not drawn)
middle range

Please answer likewise for OC(CN1CCN(Cc2cccnc2)CC1)c1cccs1 (stereo not drawn)
lower range

Please answer likewise for "Cc1[nH]c2c(C)cccc2c1CC(=O)N(C)CCN(C)C"
middle range

Please answer likewise for CC(=O)NCC(=O)N1Cc2cc(-c3cc[nH]n3)ccc2C1c1cnco1 (stereo not drawn)
upper range

Please answer likewise for O=C(c1ccncc1)N1CCC2(CC1)CC(Oc1cccnc1)CO2 (stereo not drawn)
middle range

Please answer likewise for N#CC1(C(=O)N2Cc3cc(-c4cc[nH]n4)ccc3C2c2cnco2)CC1 (stereo not drawn)
lower range

Please answer likewise for CN(C)C(=O)N1CCCC(C(=O)N(C)CCCc2cnn(C)c2)C1 (stereo not drawn)
upper range

Please answer likewise for CCc1cnc(NCC2OCCc3ccccc32)nc1 (stereo not drawn)
upper range

Please answer likewise for "O=C(NC[C@]12COC[C@H]1CN(Cc1nccs1)C2)N1CCCC1"
lower range

Please answer likewise for "CN(CC(C)(C)C)S(=O)(=O)c1ccc(C(F)(F)F)nc1"
middle range

Please answer likewise for CN(C)c1ccc2c(c1)CN(C(=O)c1cnccn1)C2c1cnco1 (stereo not drawn)
middle range

Please answer likewise for CC(C)N1CCCC(C(=O)N(C)CCCc2cnn(C)c2)C1 (stereo not drawn)
upper range

Please answer likewise for CN(C)CC(=O)N1Cc2cc(-c3cc[nH]n3)ccc2C1c1cnco1 (stereo not drawn)
lower range

Please answer likewise for "Cc1noc(C)c1CN(C)Cn1c(=O)n(C)c2ccccc21"
middle range

Please answer likewise for CC(C)c1nnc(CCC(=O)N2CCOC(c3cnccn3)C2)o1 (stereo not drawn)
lower range

Please answer likewise for c1ccc2oc(CN3CCCC3c3noc(C4CC4)n3)nc2c1 (stereo not drawn)
lower range

Please answer likewise for CN(C)CC(=O)N1Cc2cc(N(C)C)ccc2C1c1cnco1 (stereo not drawn)
middle range

Please answer likewise for "Cc1cnc(N)c(C(=O)C2CCN(C(=O)c3ccccc3F)CC2)c1"
upper range

Please answer likewise for CNC(=O)C1CN(c2ncccn2)CCN1Cc1ccccc1 (stereo not drawn)
lower range

Please answer likewise for Cc1noc(CN2CCCC2c2noc(C3CC3)n2)n1 (stereo not drawn)
middle range

Please answer likewise for CCc1noc(CN2CCCC2c2noc(C3CC3)n2)n1 (stereo not drawn)
middle range

Please answer likewise for "COCC(=O)N1CCC(C(=O)c2cc(C)cnc2N)CC1"
upper range

Please answer likewise for "COc1ccc(Cl)c(-c2noc3ncn(CCC(=O)O)c(=O)c23)c1"
middle range

Please answer likewise for CN(C)c1ccc2c(c1)CN(C(=O)c1ccco1)C2c1cnco1 (stereo not drawn)
lower range

Please answer likewise for CCCC(NC(=O)c1ccccc1Br)c1nnn[nH]1 (stereo not drawn)
upper range

Please answer likewise for N#Cc1ccc2c(c1)CN(C(=O)C1CC=CC1)C2c1cnco1 (stereo not drawn)
middle range

Please answer likewise for CCc1nc(C2CCCN2Cc2cnc(C)cn2)no1 (stereo not drawn)
lower range

Please answer likewise for "CCCNC(=O)COc1cc(C)c2c(C)nn(-c3ccc(C)cc3)c2n1"
lower range

Please answer likewise for "CCC[C@H]1CN(C(=O)Cn2ccccc2=O)C[C@@H]1NS(C)(=O)=O"
middle range

Please answer likewise for "Cc1cnc(N)c(C(=O)C2CCN(C(=O)C3CCC3)CC2)c1"
lower range

Please answer likewise for "Cc1ccc(S(=O)(=O)N(C)Cc2cnccn2)cc1N(C)C"
middle range

Please answer likewise for CCc1nc(C2CCCN2Cc2cc(C)nc3ccccc23)no1 (stereo not drawn)
upper range

Please answer likewise for "CCOC(=O)CCn1cnc2onc(-c3ccc(OC)cc3)c2c1=O"
upper range

Please answer likewise for "Cc1cnc(N)c(C(=O)C2CCN(C(=O)c3cnc(C)cn3)CC2)c1"
lower range

Please answer likewise for "O=C(NCc1ccccn1)NCc1ccc(Cl)s1"
lower range

Please answer likewise for O=S(=O)(C1CC1)N1CCC2(CC1)CC(Oc1cccnc1)CO2 (stereo not drawn)
middle range

Please answer likewise for "CC(C)NC(=O)CCCn1cnc2ccccc2c1=O"
lower range

Please answer likewise for "CCn1cc(CN2CCN(C(=O)c3cc(Br)cs3)CC2)c(C)n1"
middle range
